target: Carbonic anhydrase 1 (Homo sapiens); assay: Inhibition of recombinant human carbonic anhydrase 1 preincubated with enzyme for 10 mins by phenol red dye based stopped flow CO2 hydration assay
Sequence (P00915 whole entry): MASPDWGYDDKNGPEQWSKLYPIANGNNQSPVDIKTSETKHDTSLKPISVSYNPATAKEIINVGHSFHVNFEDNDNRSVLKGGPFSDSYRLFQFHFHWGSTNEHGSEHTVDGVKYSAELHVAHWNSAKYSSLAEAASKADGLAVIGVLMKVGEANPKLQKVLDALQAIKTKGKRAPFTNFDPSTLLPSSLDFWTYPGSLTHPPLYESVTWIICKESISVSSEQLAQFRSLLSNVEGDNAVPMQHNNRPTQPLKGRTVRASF
propertyLabel: Ki (nM)

I = Nc1cccc(C(O)c2ccc(-c3ccc(S(N)(=O)=O)cc3)cc2)c1 (stereo unspecified)
II = NS(=O)(=O)c1ccc(-c2ccc(Cc3ccccc3C(=O)O)cc2)cc1
III = Nc1cccc(C(=O)c2ccc(-c3ccc(S(N)(=O)=O)cc3)cc2)c1
## Input Please put the entries in order of rising Ki. Response field: labels, in requested order.
## Output II, I, III
(II: 6.8 nM, I: 33.1 nM, III: 87.3 nM)

====

target: Carbonic anhydrase 1 (Homo sapiens); assay: Inhibition of recombinant human carbonic anhydrase 1 preincubated with enzyme for 10 mins by phenol red dye based stopped flow CO2 hydration assay
pKi: −log10 of the molar value.
propertyLabel: pKi

molecule=Nc1cccc(Cc2ccc(-c3ccc(S(N)(=O)=O)cc3)cc2)c1 propertylabel=pKi number=8.23

I = NS(=O)(=O)c1ccc(-c2ccc(C(O)c3cccc(C(=O)O)c3)cc2)cc1 (stereo not drawn)
II = NS(=O)(=O)c1ccc(-c2ccc(C(=O)c3ccccc3C(=O)O)cc2)cc1
III = NS(=O)(=O)c1ccc(-c2ccc(Cc3cccc(C(=O)O)c3)cc2)cc1
IV = Nc1ccccc1C(=O)c1ccc(-c2ccc(S(N)(=O)=O)cc2)cc1
V = NS(=O)(=O)c1ccc(-c2ccc(C3OC(=O)c4ccccc43)cc2)cc1 (stereo not drawn)
## Input Rank descending by pKi. Response field: labels, in requested order.
## Output I, III, II, V, IV

# credit: ChEMBL document CHEMBL4613276
